biological target: Microtubule-associated protein tau (Homo sapiens) (UniProt P10636); experiment: qHTS for Inhibitors of Tau Fibril Formation, Thioflavin T Binding; conditions: recombinant tau K18 P301L, heparin-induced fibrillization, ThT fluorescence; series mostly up to 57.4 µM; note: nearly all actives have a fitted effect of over 55% in size
Sequence (P10636 561-689 P618L limits assumed): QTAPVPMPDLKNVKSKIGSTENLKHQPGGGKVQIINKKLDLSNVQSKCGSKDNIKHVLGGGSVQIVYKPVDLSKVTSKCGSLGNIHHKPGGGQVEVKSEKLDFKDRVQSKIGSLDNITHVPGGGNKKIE
The whole screen tested about 270,000 compounds, of which about 5,800 (2.1%) were called active. Roughly 16% stayed inconclusive and do not appear here. Many of the other results were omitted from the sample, so actives are more common in it than they were.
parameter: outcome

Some compounds with known outcome results, for comparison:
compound: C[N+]1(C)CCOC(O)(c2ccc(-c3ccc(C4(O)C[N+](C)(C)CCO4)cc3)cc2)C1 (stereo not given)
outcome: inactive
--
compound: CCCCCCCCc1[se]c2ccccc2c1Br
outcome: inactive
--
compound: O=C(OCCN1CCOCC1)C1(c2ccccc2)CCCC1
outcome: inactive
--
compound: Cc1ccc(-n2c(/C=C/c3cccc(C(F)(F)F)c3)nc3ccccc3c2=O)cc1
outcome: inactive

Let us move to another entry and its outcome.
Q: Hello, please tell me recorded outcome for this one: CN(C)[C@@H]1C(=O)C(C(N)=O)=C(O)[C@@]2(O)C(=O)C3=C(O)c4c(O)cccc4[C@@](C)(O)C3CC12 (stereo not given in full)
A: inactive

----------
target: Microtubule-associated protein tau (Homo sapiens) (UniProt P10636); experiment: qHTS for Inhibitors of Tau Fibril Formation, Thioflavin T Binding; details: recombinant tau K18 P301L (four-repeat tau fragment), heparin-induced fibrillization, ThT fluorescence; series mostly up to 57.4 µM; note: nearly all actives have a fitted effect of over 55% in size
Among all 270,000 compounds or so, about 5,800 (2.1%) were called active. About 16% were inconclusive and are not listed. Calls follow the shape of the dose curve; as a rule, active = well fitted inhibition curve with a large enough effect; inconclusive = small, poorly fitted or top-dose-only effect; inactive = flat fitted curve, though single readings scatter. Only a selection was taken, and actives are over-represented in it overall.
Can you answer with just one of these options? active, inactive

Q: For N[C@@H](Cc1c[nH]c2ccccc12)c1nnc(SCc2c(F)cccc2Cl)o1 , which call appears in the assay record?
A: inactive

Q: For CC[C@@H]1CN2CC[C@@H]1C[C@H]2[C@H](O)c1ccnc2ccc(OC)cc12 , which call appears in the assay record?
A: inactive

Q: For O=C1NC(=O)C(CCc2ccccn2)(Cc2cccc(Cl)c2Cl)C(=O)N1c1ccc(Br)cc1 (stereo not drawn) , which call appears in the assay record?
A: inactive

Q: For CCN(CC)c1ccc([N+](=O)[O-])c2cccnc12 , which call appears in the assay record?
A: active

Q: For CCN1CC2C3CCC(C)(O3)C2C1 (stereo not drawn) , which call appears in the assay record?
A: inactive

Q: For c1ccc2sc(SNC3CCCCC3)nc2c1 , which call appears in the assay record?
A: inactive

Q: For O=c1oc2ccccc2c(O)c1C(c1ccccc1O)c1c(O)c2ccccc2oc1=O , which call appears in the assay record?
A: inactive

Q: For CCN(CC)CCOC(=O)c1cc2cc(COC)ccc2o1 , which call appears in the assay record?
A: inactive

Q: For C1CC[C@H]([C@@]23C[C@H](C[C@H]4CCCN[C@H]42)[C@@H]2CCCCN2C3)NC1 , which call appears in the assay record?
A: inactive

Q: For O=C(NC(c1ccc(Cl)cc1)P(=O)(Oc1ccccc1)Oc1ccccc1)OCc1ccccc1 (stereo not drawn) , which call appears in the assay record?
A: inactive

Q: For CCC(C)n1c(O)c(/C=N/Nc2nc3c(c(=O)n(C)c(=O)n3C)n2C)c(=O)[nH]c1=S (stereo not drawn) , which call appears in the assay record?
A: active

Q: For Cc1ncsc1CCCl , which call appears in the assay record?
A: inactive

Q: For COc1c(O)ccc2c1-c1c3c(cc4c1C(C2)N(C)CC4)OCO3 (stereo not drawn) , which call appears in the assay record?
A: inactive

Q: For CCCCC/C=C\C/C=C\C/C=C\C=C\[C@H](CCCC(=O)O)OO , which call appears in the assay record?
A: inactive

Q: For CC1=C(C(=O)Nc2ccccc2)SCCO1 , which call appears in the assay record?
A: inactive

Q: For Cn1c(O)c(C=Nc2ccc3c(c2)CCC3)c(=O)n(C)c1=O , which call appears in the assay record?
A: inactive

Q: For Cc1ccc(CN2CCCC(C(=O)c3ccc4c(c3)OCO4)C2)cc1C (stereo not drawn) , which call appears in the assay record?
A: inactive

Q: For CCC(=NCCc1ccccc1)c1c(O)n(C2CCCCC2)c(=O)[nH]c1=O , which call appears in the assay record?
A: inactive

Q: For CN1C2CC3CC1C(O3)C2O (stereo not drawn) , which call appears in the assay record?
A: inactive

Q: For Cc1nc2ccccn2c1P(=S)(N1CCCCC1)N1CCCCC1 , which call appears in the assay record?
A: inactive

Q: For C=CCSSCC=C , which call appears in the assay record?
A: inactive

Q: For Cc1ccc2c(c1)=C/C(=C\c1c(O)[nH]c(=O)[nH]c1=O)C(=O)N=2 , which call appears in the assay record?
A: inactive

Q: For CCCCN1C2CCC1CC(OC(c1ccc(F)cc1)c1ccc(F)cc1)C2 (stereo not drawn) , which call appears in the assay record?
A: inactive
